Source: paper PMC12294558

Tested on: LoVo cells
assay.summary: MTT viability assay, colorectal cancer cells LoVo
Assay type: cell-based, human
protocol.conditions: CC50 CCD 841 CoTr / CC50 LoVo
Protocol: The cytotoxic effects of ten newly synthesized N-Mannich bases were assessed on the normal human intestinal epithelium (CCD 841 CoTr) and cancer cell lines: gastric cancer (EPG) and four colorectal cancer lines (Caco-2, LoVo, LoVo/Dx, and HT-29). Cell viability was evaluated using the MTT assay in accordance with Annex C of ISO 10993-5 [33]. The biological activity of the newly synthesized compounds was assessed in the context of anticancer activity. […]
measurement.kind: SI, LoVo
Reply with the value as a number alone.

Which SI, LoVo value is on record for Cc1cc(C)c(C(=O)NCc2nn(CN3CCN(c4cccc(Cl)c4)CC3)c(=S)n2C(C)C)c(S)n1 [Compound 12] ?
0.77

Which SI, LoVo value is on record for Cc1cc(C)c(C(=O)NCc2nn(CN3CCN(c4ccccc4)CC3)c(=S)n2-c2ccccc2)c(S)n1 [Compound 4] ?
1.18

Which SI, LoVo value is on record for Cc1cc(C)c(C(=O)NCc2nn(CN3CCN(c4ccc([N+](=O)[O-])cc4)CC3)c(=S)n2C(C)C)c(S)n1 [Compound 13] ?
2.26

Which SI, LoVo value is on record for Cc1ccc(N2CCN(Cn3nc(CNC(=O)c4c(C)cc(C)nc4S)n(C)c3=S)CC2)cc1 [Compound 11] ?
1.98

* * *

Provide the recorded SI, Caco-2 for the entries that follow.
System: Caco-2 cells
assay.summary: MTT viability assay, colorectal cancer cells Caco-2
Assay type: cell-based, human
protocol.conditions: CC50 CCD 841 CoTr / CC50 Caco-2
Reply with the value as a number alone.

// map O=c1[nH]cc(F)c(=O)[nH]1 [Compound 5-FU, 5-fluorouracil, reference compound] to recorded SI, Caco-2 (system: Caco-2 cells)
0.36

// map Cc1cc(C)c(C(=O)NCc2nn(CN3CCN(c4cccc(Cl)c4)CC3)c(=S)n2-c2ccccc2)c(S)n1 to recorded SI, Caco-2 (system: Caco-2 cells)
0.97

// map Cc1ccc(N2CCN(Cn3nc(CNC(=O)c4c(C)cc(C)nc4S)n(-c4ccccc4)c3=S)CC2)cc1 to recorded SI, Caco-2 (system: Caco-2 cells)
5.16

* * *

System: LoVo cells
assay.summary: MTT viability assay, colorectal cancer cells LoVo
Format: cell-based, human
protocol.conditions: Homo sapiens, LoVo; MTT, 24 h; Non-toxic = no toxicity in tested range 1–500 μM; read-out: CC50 ± SD, LoVo
measurement.kind: CC50
Don't forget the unit after the value.

Which CC50 value is on record for Cc1cc(C)c(C(=O)NCc2nn(CN3CCN(c4cccc(Cl)c4)CC3)c(=S)n2C(C)C)c(S)n1 ?
446 µM

Which CC50 value is on record for Cc1ccc(N2CCN(Cn3nc(CNC(=O)c4c(C)cc(C)nc4S)n(-c4ccccc4)c3=S)CC2)cc1 ?
163 µM

Which CC50 value is on record for Cc1cc(C)c(C(=O)NCc2nn(CN3CCN(c4cccc(Cl)c4)CC3)c(=S)n2C)c(S)n1 ?
152 µM

Which CC50 value is on record for Cc1cc(C)c(C(=O)NCc2nn(CN3CCN(c4ccc([N+](=O)[O-])cc4)CC3)c(=S)n2C)c(S)n1 ?
148 µM

Which CC50 value is on record for O=c1[nH]cc(F)c(=O)[nH]1 [Compound 5-FU, 5-fluorouracil, reference compound] ?
72.2 µM

Which CC50 value is on record for Cc1cc(C)c(C(=O)NCc2nn(CN3CCN(c4ccccc4)CC3)c(=S)n2-c2ccccc2)c(S)n1 ?
201 µM

Which CC50 value is on record for Cc1cc(C)c(C(=O)NCc2nn(CN3CCN(c4ccc([N+](=O)[O-])cc4)CC3)c(=S)n2C(C)C)c(S)n1 ?
193 µM

Which CC50 value is on record for Cc1cc(C)c(C(=O)NCc2nn(CN3CCN(c4ccc([N+](=O)[O-])cc4)CC3)c(=S)n2-c2ccccc2)c(S)n1 ?
178 µM

Which CC50 value is on record for Cc1ccc(N2CCN(Cn3nc(CNC(=O)c4c(C)cc(C)nc4S)n(C)c3=S)CC2)cc1 ?
137 µM

* * *

System: LoVo/Dx cells
assay.summary: MTT viability assay, doxorubicin-resistant LoVo/Dx
Assay type: cell-based, human
protocol.conditions: Homo sapiens, LoVo/DX; MTT, 24 h; read-out: CC50 ± SD, LoVo/Dx
Method: The cytotoxic effects of ten newly synthesized N-Mannich bases were assessed on the normal human intestinal epithelium (CCD 841 CoTr) and cancer cell lines: gastric cancer (EPG) and four colorectal cancer lines (Caco-2, LoVo, LoVo/Dx, and HT-29). Cell viability was evaluated using the MTT assay in accordance with Annex C of ISO 10993-5 [33]. The biological activity of the newly synthesized compounds was assessed in the context of anticancer activity. […]
Provide the recorded CC50 for the entries that follow.
Don't forget the unit after the value.

Which CC50 value is on record for Cc1cc(C)c(C(=O)NCc2nn(CN3CCN(c4cccc(Cl)c4)CC3)c(=S)n2-c2ccccc2)c(S)n1 ?
184 µM

Which CC50 value is on record for Cc1cc(C)c(C(=O)NCc2nn(CN3CCN(c4cccc(Cl)c4)CC3)c(=S)n2C(C)C)c(S)n1 ?
487 µM

Which CC50 value is on record for Cc1cc(C)c(C(=O)NCc2nn(CN3CCN(c4ccc([N+](=O)[O-])cc4)CC3)c(=S)n2-c2ccccc2)c(S)n1 ?
321 µM

* * *

System: Caco-2 cells
assay.summary: MTT viability assay, colorectal cancer cells Caco-2
Type: cell-based, human
protocol.conditions: Homo sapiens, Caco-2; MTT, 24 h; read-out: CC50 ± SD, Caco-2
Provide the recorded CC50 for the entries that follow.
API: value field is a number in µM; no unit string.

Which CC50 value is on record for Cc1cc(C)c(C(=O)NCc2nn(CN3CCN(c4cccc(Cl)c4)CC3)c(=S)n2C)c(S)n1 ?
88.6

Which CC50 value is on record for Cc1cc(C)c(C(=O)NCc2nn(CN3CCN(c4ccc([N+](=O)[O-])cc4)CC3)c(=S)n2C)c(S)n1 ?
87.2

Which CC50 value is on record for Cc1cc(C)c(C(=O)NCc2nn(CN3CCN(c4ccc([N+](=O)[O-])cc4)CC3)c(=S)n2C(C)C)c(S)n1 ?
146

Which CC50 value is on record for Cc1ccc(N2CCN(Cn3nc(CNC(=O)c4c(C)cc(C)nc4S)n(-c4ccccc4)c3=S)CC2)cc1 ?
75.1

Which CC50 value is on record for Cc1cc(C)c(C(=O)NCc2nn(CN3CCN(c4cccc(Cl)c4)CC3)c(=S)n2-c2ccccc2)c(S)n1 ?
228

Which CC50 value is on record for Cc1cc(C)c(C(=O)NCc2nn(CN3CCN(c4ccc([N+](=O)[O-])cc4)CC3)c(=S)n2-c2ccccc2)c(S)n1 ?
84.3

Which CC50 value is on record for Cc1cc(C)c(C(=O)NCc2nn(CN3CCN(c4cccc(Cl)c4)CC3)c(=S)n2C(C)C)c(S)n1 ?
247

Which CC50 value is on record for O=c1[nH]cc(F)c(=O)[nH]1 [Compound 5-FU, 5-fluorouracil, reference compound] ?
170

Which CC50 value is on record for Cc1cc(C)c(C(=O)NCc2nn(CN3CCN(c4ccccc4)CC3)c(=S)n2-c2ccccc2)c(S)n1 ?
133

Which CC50 value is on record for Cc1ccc(N2CCN(Cn3nc(CNC(=O)c4c(C)cc(C)nc4S)n(C)c3=S)CC2)cc1 ?
57.7

* * *

Provide the recorded SI, LoVo for the entries that follow.
Test system: LoVo cells
assay.summary: MTT viability assay, colorectal cancer cells LoVo
Type: cell-based, human
protocol.conditions: CC50 CCD 841 CoTr / CC50 LoVo
Reply with the value as a number alone.

// map Cc1ccc(N2CCN(Cn3nc(CNC(=O)c4c(C)cc(C)nc4S)n(-c4ccccc4)c3=S)CC2)cc1 to recorded SI, LoVo (system: LoVo cells)
2.37

// map O=c1[nH]cc(F)c(=O)[nH]1 [Compound 5-FU, 5-fluorouracil, reference compound] to recorded SI, LoVo (system: LoVo cells)
0.85

* * *

Tested on: LoVo/Dx cells
assay.summary: MTT viability assay, doxorubicin-resistant LoVo/Dx
Type: cell-based, human
protocol.conditions: CC50 CCD 841 CoTr / CC50 LoVo/Dx
measurement.kind: SI, LoVo/Dx
Reply with the value as a number alone.

Which SI, LoVo/Dx value is on record for Cc1ccc(N2CCN(Cn3nc(CNC(=O)c4c(C)cc(C)nc4S)n(C)c3=S)CC2)cc1 [Compound 11] ?
1.06

Which SI, LoVo/Dx value is on record for Cc1ccc(N2CCN(Cn3nc(CNC(=O)c4c(C)cc(C)nc4S)n(-c4ccccc4)c3=S)CC2)cc1 [Compound 6] ?
1.99

Which SI, LoVo/Dx value is on record for Cc1cc(C)c(C(=O)NCc2nn(CN3CCN(c4ccc([N+](=O)[O-])cc4)CC3)c(=S)n2C(C)C)c(S)n1 [Compound 13] ?
1.04

Which SI, LoVo/Dx value is on record for O=c1[nH]cc(F)c(=O)[nH]1 [Compound 5-FU, 5-fluorouracil, reference compound] ?
0.27
